- System: Candida albicans
- ASSAY_REMARKS: Antifungal activity against Candida albicans ATCC 28366 assessed as inhibition of fungal growth incubated for 24 hrs by plate count determination
- Format: functional
Examples of molecules with documented MIC follow.
Kindly answer with a numeric value in µg/mL, unit omitted.

# annotated cases, reported MIC shown
Lookup result for c1ccc(COc2ccc(C[C@H]3CN[C@@H](Cc4ccccc4)CN3)cc2)cc1 ; measured MIC: 96

Lookup result for c1ccc(COc2ccc(C[C@H]3CN[C@@H](Cc4ccc(OCc5ccccc5)cc4)CN3)cc2)cc1 ; measured MIC: 24

Continue with the molecule presented below.
Lookup result for c1ccc(COc2ccc(C[C@@H]3CN[C@H](Cc4ccc(OCc5ccccc5)cc4)CN3)cc2)cc1 ; measured MIC: 24
